test: qHTS assay to identify small molecule antagonists of the retinoid acid receptor (RAR) signaling pathway - cell viability counter screen (AID 1159551); settings: C3RL4 cells viability, ATP luminescence (CellTiter-Glo), 6 h; series mostly up to 92.4 µM; further: on the % scale 0 is the no-effect control and ±100 the full control effect; nearly all actives have a fitted effect of over 35% in size
Results filed as inconclusive are left out. Calls of active or inactive are those of the source. The call rests on the fitted dose curve; in most records, active means well fitted cell-killing curve with a large enough effect in the repeat runs; inconclusive means weak or mixed curves, or effect the other way; inactive means flat fitted curve, though single readings scatter.
Readout kind: activity change, negative = cytotoxicity

[[record]]
compound = "COC(CC(C)CCCC(C)(C)O)OC (configuration not stated)"
readout_value = "inactive"

[[record]]
compound = "CCCc1nc2c(C)cc(-c3nc4ccccc4n3C)cc2n1Cc1ccc(-c2ccccc2C(=O)O)cc1"
readout_value = "inactive"

[[record]]
compound = "CC/C=C\\C/C=C\\C/C=C\\CCCCCCCC(=O)OCC"
readout_value = "inactive"

[[record]]
compound = "CC(C)C(=O)OCCOc1ccccc1"
readout_value = "inactive"

[[record]]
compound = "COc1ccc(/C=C/C(=O)c2ccc(OC)cc2OC)cc1"
readout_value = "inactive"


input: Item O=C(Oc1ccccc1)c1ccc2ccccc2c1O : provide activity change, negative = cytotoxicity
output: inactive

----------
experiment: qHTS assay to identify small molecule agonists of the constitutive androstane receptor (CAR) signaling pathway - cell viability counter screen (AID 1224836); conditions: HepG2-CYP2B6-hCAR viability, CellTiter-Fluor, 23 h, PK11195 added to every well; series mostly up to 92.4 µM; further: on the % scale 0 is the no-effect control and ±100 the full control effect; nearly all actives have a fitted effect of over 45% in size
Inconclusive results are not listed. Calls of active or inactive are those of the source. The call rests on the fitted dose curve; in most records, active means well fitted cell-killing curve with a large enough effect in the repeat runs; inconclusive means weak or mixed curves, or effect the other way; inactive means flat fitted curve, though single readings scatter.
Listed here: items and their measured viability change, negative = cytotoxic.

Below are worked cases with known answers.
[[record]]
molecule = "CCCCCCCCCCCCCOC(=O)CCSCCC(=O)OCCCCCCCCCCCCC"
readout_value = "-3.39% [at 19 µM] (inactive)"

[[record]]
molecule = "CC1=CC[C@@H]2C[C@H]1C2(C)C"
readout_value = "1.82% [at 19 µM] (inactive)"

[[record]]
molecule = "CCC(Cl)CC(Cl)C(Cl)C(Cl)C(Cl)C(C)Cl (centres undefined)"
readout_value = "-5.9% [at 19 µM] (inactive)"


Let us move to another entry and its viability change, negative = cytotoxic.
input: Item CCCCCCCCCCCCCCN(C)C : provide viability change, negative = cytotoxic
output: 5.26% [at 19 µM] (inactive)

----------
assay: qHTS assay to identify small molecule antagonists of the constitutive androstane receptor (CAR) signaling pathway - cell viability counter screen (AID 1224837); conditions: HepG2-CYP2B6-hCAR viability, CellTiter-Fluor, 23 h, co-treated with 50 nM CITCO; series mostly up to 92.4 µM; further: on the % scale 0 is the no-effect control and ±100 the full control effect; nearly all actives have a fitted effect of over 45% in size
Records with an inconclusive call do not appear. The source made the active and inactive calls. Calls follow the shape of the dose curve; as a rule, active = well fitted cell-killing curve with a large enough effect in the repeat runs; inconclusive = weak or mixed curves, or effect the other way; inactive = flat fitted curve, though single readings scatter.
Classes to choose from: active, inactive

[[record]]
compound = "COC(=O)Nc1nc2ccc(C(=O)C3CC3)cc2[nH]1"
category_label = "inactive"

[[record]]
compound = "CCCCCCCCCCCC(=O)OCC(O)CO (stereo not given)"
category_label = "inactive"

[[record]]
compound = "CCN(CC)c1cccc(O)c1"
category_label = "inactive"

[[record]]
compound = "Nc1nc(-c2ccc([N+](=O)[O-])cc2)cs1"
category_label = "inactive"


input: # fetch the recorded call for CCCCCCCC/C=C/C(=O)O here
output: inactive

input: # fetch the recorded call for O=C1CC[C@@H](C(=O)O)N1 here
output: inactive

input: # fetch the recorded call for CCOC(=O)Oc1ccc(CCNC(=O)[C@H](CCSC)NC(C)=O)cc1OC(=O)OCC here
output: inactive
